Data origin: PubChem BioAssay AID588489

Target Or System: Polyadenylate-binding protein 1 (Homo sapiens) (UniProt P11940)
Sequence (P11940 whole entry, looked up): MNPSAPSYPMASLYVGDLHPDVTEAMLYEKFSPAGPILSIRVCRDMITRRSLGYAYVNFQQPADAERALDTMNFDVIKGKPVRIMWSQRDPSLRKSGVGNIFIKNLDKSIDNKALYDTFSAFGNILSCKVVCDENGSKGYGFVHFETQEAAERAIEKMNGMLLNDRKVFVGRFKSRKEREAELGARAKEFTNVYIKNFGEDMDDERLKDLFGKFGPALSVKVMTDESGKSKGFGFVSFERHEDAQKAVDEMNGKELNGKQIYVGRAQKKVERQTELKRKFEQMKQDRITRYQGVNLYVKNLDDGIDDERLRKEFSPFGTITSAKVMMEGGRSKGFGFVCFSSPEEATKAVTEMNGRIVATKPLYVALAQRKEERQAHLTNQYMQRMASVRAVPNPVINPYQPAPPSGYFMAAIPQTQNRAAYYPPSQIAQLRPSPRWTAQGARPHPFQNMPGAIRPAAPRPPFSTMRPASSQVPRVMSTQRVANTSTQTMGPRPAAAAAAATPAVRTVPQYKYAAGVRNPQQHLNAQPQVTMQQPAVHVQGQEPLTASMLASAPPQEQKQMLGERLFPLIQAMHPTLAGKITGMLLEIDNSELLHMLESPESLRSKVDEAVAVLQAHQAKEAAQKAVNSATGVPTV
Assay Comment: inhibitors of PABP1 MLLE–PAM2 peptide binding, primary screen, biochemical, fluorescence polarization, FITC-PAM2, GST-MLLE (AID 588489);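 note: plate controls were DMSO wells with GST-MLLE for no effect and wells lacking GST-MLLE protein for full effect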
Study Conditions: at 20 µM, hits give high values
About 1,300 (0.36%) of roughly 360,000 compounds were called active. For the sample, actives were picked, then their nearest neighbours and some compounds at random.
Observed Property: inhibition (%)
One number for each entry, in %.

> print(dat)
                                   compound                          target.or.system  recorded.value
1  COCCN(C(=O)c1ccccc1F)c1c(N)n(Cc2ccccc2)c(=O)[nH]c1=O  Polyadenylate-binding protein 1 (Homo sapiens) (UniProt P11940)           -9.82
2  CCCCC(=O)NC(c1ccc(OC)c(OC)c1)c1ccc2cccnc2c1O (centres undefined)  Polyadenylate-binding protein 1 (Homo sapiens) (UniProt P11940)            5.41
3  CC[N+]1(CC)CC2=Cc3ccccc3CC2C1 (centres undefined)  Polyadenylate-binding protein 1 (Homo sapiens) (UniProt P11940)           -5.91
4  O=C(c1ccc(N2CCOCC2)c([N+](=O)[O-])c1)N1CCN(S(=O)(=O)c2cccs2)CC1  Polyadenylate-binding protein 1 (Homo sapiens) (UniProt P11940)            -8.8
5  CN(C)S(=O)(=O)c1cccc(NC(=O)COC(=O)C2(c3ccccc3F)CCCC2)c1  Polyadenylate-binding protein 1 (Homo sapiens) (UniProt P11940)            4.77

Please state inhibition for every compound in the list that follows.
1. CCOC(=O)C(C)n1cnc2c(nnn2-c2cccc(OC)c2)c1=O (centres undefined)
2. Cc1cccc(-n2c(N)c(C(=O)N3CCN(C)CC3)sc2=S)c1
3. O=C1CCCC(O)=C1N=Nc1ccc(S(=O)(=O)N2CCOCC2)cc1
4. COc1cc2c(cc1NC(=O)COC(=O)/C=C/c1ccccc1)oc1ccccc12
5. O=C(CN1CCOCC1)Nc1c(-c2ccccc2)c2cc(Br)ccc2[nH]c1=O

1. 1.6
2. 3.33
3. 8.62
4. 11
5. 7.03

Please state inhibition for every compound in the list that follows.
1. CC1=C(C(=O)Nc2ccc(Cl)cc2)C(c2ccco2)NC(=O)N1 (centres undefined)
2. COCCOC(=O)c1sc(=S)n(CCOC)c1N
3. CC1CCCC(C)N1C(=O)CN1CCN(c2nc(-c3ccc(F)cc3)cs2)CC1 (centres undefined)
4. Cc1ccc(CNC(=O)C2CCN(S(=O)(=O)c3ccc4nc5c(c(C(=O)O)c4c3)CC(C)CC5)CC2)cc1 (centres undefined)
5. C=CCn1c(SCC(=O)NCc2ccccc2)nnc1-c1cc(Br)ccc1O
6. O=C1CSC2=NCN(c3ccccc3)CN12
7. O=S(=O)(Oc1ccccc1C(=S)N1CCOCC1)c1ccc(Cl)cc1

1: -4.08; 2: 49.3; 3: -7.72; 4: -3.02; 5: -75.9; 6: -6.21; 7: 44.5

Please state inhibition for every compound in the list that follows.
1. CC(C)(C)[C@H]1C=C(C(=O)NCc2ccccc2)O[C@@H](OCc2ccc(CO)cc2)C1
2. COc1ccc(C)cc1NC(=S)N1CCOCC1
3. CC(=O)Nc1cc(-c2ccc(N3CCN(C)CC3)cc2)cn2c(-c3ccc(F)cc3)cnc12

1. -0.14
2. -27.2
3. -30.8

* * *

Target Or System: Polyadenylate-binding protein 1 (Homo sapiens)
Assay Comment: inhibitors of PABP1 MLLE–PAM2 peptide binding, primary screen, biochemical, fluorescence polarization, FITC-PAM2, GST-MLLE (AID 588489);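 note: plate controls were DMSO wells with GST-MLLE for no effect and wells lacking GST-MLLE protein for full effect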
Study Conditions: at 20 µM, hits give high values
About 1,300 (0.36%) of roughly 360,000 compounds were called active. The full list was thinned out, with actives kept by preference.
Observed Property: inhibition (%)
Give bare numbers, in %.

Example molecules with recorded inhibition:
> print(dat)
                                   molecule                          target.or.system  readout.units  recorded.value
1  CC1COc2ccccc2N1C(=O)c1ccc(F)cc1 (configuration not stated)  Polyadenylate-binding protein 1 (Homo sapiens)              %           -13.6
2  O=C(NCCC(=O)N1O[C@@H]2C=C[C@H]1C2)OCC1c2ccccc2-c2ccccc21  Polyadenylate-binding protein 1 (Homo sapiens)              %           -4.15
3  O=C(Cn1cnc2c(OCc3ccccc3)ncnc21)NCc1nc2ccccc2[nH]1  Polyadenylate-binding protein 1 (Homo sapiens)              %            6.52

Please state inhibition for every molecule in the list that follows.
1. Cn1nnc(NC(=S)NC(=O)c2ccccc2)n1
2. COc1ccc(NC(=O)c2c(C)oc3c2CCCC3)cc1
3. CC(=O)Nc1ccc(SCC(=O)Nc2ccccc2Oc2ccccc2)cc1

[26.2, 6.57, 38.1]

* * *

For each of the compounds below, state its inhibition.
Target Or System: Polyadenylate-binding protein 1 (Homo sapiens)
Assay Comment: inhibitors of PABP1 MLLE–PAM2 peptide binding, primary screen, biochemical, fluorescence polarization, FITC-PAM2, GST-MLLE (AID 588489);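 note: plate controls were DMSO wells with GST-MLLE for no effect and wells lacking GST-MLLE protein for full effect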
Study Conditions: at 20 µM, hits give high values
In all, about 360,000 compounds went through this assay and about 1,300 (0.36%) were called active. For the sample, actives were picked, then their nearest neighbours and some compounds at random.

Example compounds with recorded inhibition:
> print(dat)
                                   compound     recorded.value
1  COc1ccc(C(C)(C)C)cc1NC(=O)CN(C)C1=NS(=O)(=O)c2ccccc21  -40.4% (inactive)
2  CCOC(=O)C1CCCCN1Cc1ccc(OC)c(OC)c1OC (centres undefined)   0.49% (inactive)
3  CC(NC(=S)Nc1ccc(OC(F)F)cc1)c1ccc(F)cc1 (centres undefined)  -13.4% (inactive)

Continue with the next compound.
// sample `CCOc1cc(C(=S)N2CCOCC2)ccc1OS(=O)(=O)c1ccc(Br)cc1` , its inhibition was 8.34% (inactive)

* * *

Target Or System: Polyadenylate-binding protein 1 (Homo sapiens)
Assay Comment: inhibitors of PABP1 MLLE–PAM2 peptide binding, primary screen, biochemical, fluorescence polarization, FITC-PAM2, GST-MLLE (AID 588489);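 note: plate controls were DMSO wells with GST-MLLE for no effect and wells lacking GST-MLLE protein for full effect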
Study Conditions: at 20 µM
Among all 360,000 compounds or so, about 1,300 (0.36%) were called active. Cut-off read from the data, not from the text of the source: active = inhibition above about 35% (passing the limit was not always enough); inactive = the rest. The list comes from a sample in which actives are over-represented; it also holds close analogues and randomly drawn compounds.
Choose the fitting class; nothing outside true = active, false = inactive is accepted.

Solved entries (count: 4):
> print(dat)
                                   compound  category
1  COc1cccc(NC(=O)CN(C)C(=O)CSC(=S)N2CCCC2)c1      true
2               COc1ccc(N/N=C2/CCCCC2=O)cc1      true
3  CC(=O)Nc1ccc(NC(=O)C(NS(=O)(=O)c2ccc3c(c2)OCCO3)C(C)C)cc1 (stereo unspecified)     false
4       COc1ccc(Nc2ccc([N+](=O)[O-])cn2)cn1      true

Check the results log: what was the call for `CCN1C(=O)[C@H]2[C@@H](c3ccc(C)cc3)N3C(=O)N(c4cccc(Br)c4)C(=O)[C@@]3(CC)[C@H]2C1=O` ?
false

Check the results log: what was the call for `O=C(c1ccc(F)cc1)N1CCC(n2nnc3ccccc32)CC1` ?
false
